Values from paper PMC8198043

- Procedure Details: Photophysical studies (absorption and emission in DMSO)
- Format: physicochemical
- Condition Parameters: emission
Measured Quantity: λem (nm)

λem reading for CCCOc1ccc2nc(N)nc3c2c1Sc1ccccc1-3 : 548

λem reading for CCCOc1ccc2c3c(n/c(=N/c4ccccc4C)n2-c2ccccc2C)-c2ccccc2Sc13 : 560

λem reading for CCCOc1ccc2nc(NCc3ccccc3Cl)nc3c2c1Sc1ccccc1-3 : 548

λem reading for CCCOc1ccc2ncnc3c2c1Sc1ccccc1-3 : 483
